molecular target: von Willebrand factor full length (Homo sapiens, UniProt P04275 SEQ:764-2813); assay: filter; 56% bound at 100 nM vWF; settings: tags: Calbiochem 681300; label: 5'-32P
observed_property: Kd (nM)
Reply numerically in nM, unit not repeated.

Lookup result for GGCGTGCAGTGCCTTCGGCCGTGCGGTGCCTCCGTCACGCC (ssDNA, 2'-OMe G9, 3'-idT) [ARC1202] ; measured Kd: 0.4
